test target: cdPadR1 (Clostridium difficile R20291, UniProt A0A9R0CDW8 1-109)
assay protocol: EMSA; 20 mM Tris pH 8.0, 120 mM KCl, 10 mM MgCl2, 5 mM DTT, 12.5% glycerol, 125 ug/mL heparin, room temperature
test context: protein: recombinant; tags: N-terminal Strep II; chain copies: 2
assay metric: binding result

[
  {
    "binder": "Pr29 (dsDNA) DNA 1: TAAACCTTGTATTATAGAGTACTATGTATTATTATAGTAAATATAAGTACTATACATTATAGAG DNA 2: CTCTATAATGTATAGTACTTATATTTACTATAATAATACATAGTACTCTATAATACAAGGTTTA",
    "result": "binds"
  },
  {
    "binder": "Pr31 (dsDNA) DNA 1: AATATAAGTACTATACATTATAGAGTAGTAGGTGAAAAGGCGGTGGTACATAATGCAGTTA DNA 2: TAACTGCATTATGTACCACCGCCTTTTCACCTACTACTCTATAATGTATAGTACTTATATT",
    "result": "binds"
  },
  {
    "binder": "Pr53 (dsDNA) DNA 1: AATATAAGTACTATACATTATAGAG DNA 2: CTCTATAATGTATAGTACTTATATT",
    "result": "no binding"
  },
  {
    "binder": "Pr118 (dsDNA) DNA 1: AACCCGTCATATGGCTTGAGTTTATACTCAAGCTTTTTTTATTGGTATATTTATATATATAAATAATTTAATATAATCAAAATGATGGGGGTATGTTACA DNA 2: TGTAACATACCCCCATCATTTTGATTATATTAAATTATTTATATATATAAATATACCAATAAAAAAAGCTTGAGTATAAACTCAAGCCATATGACGGGTT",
    "result": "binds"
  },
  {
    "binder": "Pr97 (dsDNA) DNA 1: TTACTTATATAATGATAAATTTTAGGAG DNA 2: CTCCTAAAATTTATCATTATATAAGTAA",
    "result": "no binding"
  },
  {
    "binder": "Pr27 (Pobg) (dsDNA) DNA 1: ATACATAAAAGGAGTGTTGAGGCACTCCTTTTTCTTATAATACTGATGAATTTATAATGGTATTTTTGGTAATGCTAATTAAAAGTTTTTAATTAAGTAG DNA 2: CTACTTAATTAAAAACTTTTAATTAGCATTACCAAAAATACCATTATAAATTCATCAGTATTATAAGAAAAAGGAGTGCCTCAACACTCCTTTTATGTAT",
    "result": "binds"
  }
]

Quick one: binding result of Pr68 (dsDNA) DNA 1: GTACTATACATTATAGAGTAG DNA 2: CTACTCTATAATGTATAGTAC ? binds

Quick one: binding result of Pr54 (dsDNA) DNA 1: GTAAATATAAGTACTATACATTATAGAGTAG DNA 2: CTACTCTATAATGTATAGTACTTATATTTAC ? binds

Values compiled from paper PMC5050560.
